apparent KD of MS2 coat protein overview
# Test system: MS2 coat protein
# TEST METHOD NOTES: apparent KD of MS2 coat protein; designed switch direction (-1 OFF switch, 1 ON switch): 1; higher = weaker reporter binding
# STATED CONDITIONS: input ligand: FMN 200 uM
Please answer using a numeric value trailed by its unit.

Reference set, count: 4
GCGGAGACGUCAGGAUAUCCAUGGAAGACACAUGAGGAUCACCCAUGUGGGAGGGAAACCAGGAGGGAGAAGGGACGGAAACGC [ssng2 v2 d] (Eterna round: R96, puzzle: Same State NG 2); 10 nM
GUUACAUGAGGAUCACCCAUGUAUGUGUGGGAGUAAGUGUCUUAGGAUAUCUGUUAUUCAAUUUAAGAGAAGGAAGAUUGUUGU [JMF's solution 38] (Eterna round: R96, puzzle: Same State NG 3); 97.1 nM
CGGGUCGUGCUAGGAUAUCUAGGAUAUGGACGAGGAUUACCCGAGCAGCAUUAGCGCACCAGAGGAGAGAAGGAGCGUGAUGCG [pwkr ssNG2 2F5 2FMN.15] (Eterna round: R96, puzzle: Same State NG 2); 287 nM
UGACACACGGCAGGAUAUCCUUAGCAAAGCUAAGGAGAAGGGCCUCAUGUCGUGGAAACGUGACAUGAGGAUCACCCAUGUCGC [Omei SS(NG)1 Cv8] (Eterna round: R96, puzzle: Same State NG 1); 58.7 nM

Query GGCCUGCCGCAAGGAUAUGAAGCUUUCGCUCCGUCAGAAGGUGCACAUGAGGAUCACCCAUGUAUGCAGGCCAAGAAAUAAACC [Tisoenat] (Eterna round: R96, puzzle: Same State NG 1) yields apparent KD of MS2 coat protein of 13.2 nM

Query GCUACCAAAUAAGCCAACAUGAGGAUCACCCAUGUAUGUUGGUAGGAUAUCGUAUGCAAAGCAUACGAGAAGGGCUAAGGUAGC [Mat - Same State NG 3 - JL Mod - D80] (Eterna round: R96, puzzle: Same State NG 3) yields apparent KD of MS2 coat protein of 57.1 nM

Query GGAAUAUUUACAGGAUAUGUUUUGUUAAGUCGAGCAGAAGGGUAGAUGUCUUACACGGUUUGUUACAUGAGGAUCACCCAUGUC [SameState NG1 #16] (Eterna round: R96, puzzle: Same State NG 1) yields apparent KD of MS2 coat protein of 26.4 nM

Query CGUCGUUUGAUAGGAUAUCGCUUUACAUGCGGAUCACCCAUGUUUACCACGCUGGUUUUUCUUUCCGAGAAGGAUUCUGAUGUU [salish99_SSNG02_r04_026] (Eterna round: R96, puzzle: Same State NG 2) yields apparent KD of MS2 coat protein of 42 nM

Query GGACGUCAAUCUCCUAAUUAAACAUGAGGAUCACCCAUGUCACAGGAUAUGAGUCCGAUUAGGACUCAGAAGGGUGAGACGUCC [Fiskers NG3ss - 49] (Eterna round: R96, puzzle: Same State NG 3) yields apparent KD of MS2 coat protein of 22.1 nM

Numbers sourced from the supplement of paper PMC9170038.
